# System: S. aureus ATCC 29213
# protocol: MIC determination, S. aureus ATCC 29213
# assayConditions: S. aureus ATCC 29213 MIC screening; active = MIC ≤ 8 μg/mL
quantity: antibacterial activity (in words)

Take a look at these entries with their results.
Nc1ccc(-c2nc(-c3ccc(Oc4ccccc4)cc3)no2)cc1 [58a] | low MIC values
FC(F)(F)c1ccc(Oc2ccc(-c3noc(-c4cc[nH]n4)n3)cc2)cc1 [102b] | No activity
Nc1cncc(-c2nc(-c3ccc(Oc4ccc(C(F)(F)F)cc4)cc3)no2)c1 [122b] | No activity
FC(F)(F)c1ccc(Oc2ccc(-c3noc(-c4n[nH]c5ccccc45)n3)cc2)cc1 [123b] | No activity

Query molecule follows.
[Q] # lookup: antibacterial activity (in words) of Nc1ccc(-c2nc(-c3ccc(Oc4ccc(C(F)(F)F)cc4)cc3)no2)cc1 [58b]
[A] low MIC values

Origin of values: paper PMC6863074
